// reported ECL signal for each item listed
Target: T1, Recombinant Human DLL4 (R&D Systems Cat#1506-D4/CF) (human, UniProt Q9NR61 27-524)
T1 construct: Bought protein (R&D Systems Cat#1506-D4/CF), immobilised on the MSD plate; also called delta-like protein 4; rHuman DLL4
Assay: ECL (MSD) multispot binding assay, DLL4 immobilised, Fab in solution
Respond with the number and no other words.

As a guide, the following entries are already answered.
1. Fab VH1-46_IGHD6-6*01_IGHJ1*01 S102A/S103P/S104F/H111F (APFF) & L6_IGKJ1*01 N93S (Fab, V domains shown, Fab with CH1 plus His6/Flag tags and kappa CL from the expression plasmids; also called APFF & N93S) VH: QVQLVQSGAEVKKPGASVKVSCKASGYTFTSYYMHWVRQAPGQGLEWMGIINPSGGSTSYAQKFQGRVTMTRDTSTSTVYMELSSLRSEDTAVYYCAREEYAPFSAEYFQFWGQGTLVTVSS VL: EIVLTQSPATLSLSPGERATLSCRASQSVSSYLAWYQQKPGQAPRLLIYDASNRATGIPARFSGSGSGTDFTLTISSLEPEDFAVYYCQQRSSWPPWTFGQGTKVEIKR: 6440
2. Fab VH1-46_IGHD6-6*01_IGHJ1*01 S102A/S103P/S104F/H111F (APFF) & L6_IGKJ1*01 N93H (Fab, V domains shown, Fab with CH1 plus His6/Flag tags and kappa CL from the expression plasmids; also called APFF & N93H) VH: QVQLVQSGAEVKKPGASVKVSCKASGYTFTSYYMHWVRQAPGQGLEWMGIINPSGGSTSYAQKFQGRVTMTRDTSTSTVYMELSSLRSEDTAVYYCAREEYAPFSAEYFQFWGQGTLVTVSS VL: EIVLTQSPATLSLSPGERATLSCRASQSVSSYLAWYQQKPGQAPRLLIYDASNRATGIPARFSGSGSGTDFTLTISSLEPEDFAVYYCQQRSHWPPWTFGQGTKVEIKR: 14700
3. Fab VH1-46_IGHD6-6*01_IGHJ1*01 S102A/S103P/S104F/H111F (APFF) & L6_IGKJ1*01 N93Y (Fab, V domains shown, Fab with CH1 plus His6/Flag tags and kappa CL from the expression plasmids; also called APFF & N93Y) VH: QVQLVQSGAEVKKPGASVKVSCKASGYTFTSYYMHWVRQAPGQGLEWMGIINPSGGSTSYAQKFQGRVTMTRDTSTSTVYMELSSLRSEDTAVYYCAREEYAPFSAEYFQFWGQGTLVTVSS VL: EIVLTQSPATLSLSPGERATLSCRASQSVSSYLAWYQQKPGQAPRLLIYDASNRATGIPARFSGSGSGTDFTLTISSLEPEDFAVYYCQQRSYWPPWTFGQGTKVEIKR: 1380

From here, focus on the item given below.
Exercise: Entry Fab VH1-46_IGHD6-6*01_IGHJ1*01 S102A/S103P/S104F (APF) & L6_IGKJ1*01 R91Q (Fab, V domains shown, Fab with CH1 plus His6/Flag tags and kappa CL from the expression plasmids; also called APF & R91Q) VH: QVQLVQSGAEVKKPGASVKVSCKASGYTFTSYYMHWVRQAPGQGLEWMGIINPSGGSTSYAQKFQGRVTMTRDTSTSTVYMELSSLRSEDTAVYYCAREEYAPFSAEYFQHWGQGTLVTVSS VL: EIVLTQSPATLSLSPGERATLSCRASQSVSSYLAWYQQKPGQAPRLLIYDASNRATGIPARFSGSGSGTDFTLTISSLEPEDFAVYYCQQQSNWPPWTFGQGTKVEIKR has what ECL signal?
Solution: 817
